Biological target: T1, Human CD3eg linker (human)
T1 construct: Single chain: epsilon and gamma subunits of human CD3 joined by a 29-mer linker, Flag-tag at the C-terminus; also called recombinant human CD3
T1 chain: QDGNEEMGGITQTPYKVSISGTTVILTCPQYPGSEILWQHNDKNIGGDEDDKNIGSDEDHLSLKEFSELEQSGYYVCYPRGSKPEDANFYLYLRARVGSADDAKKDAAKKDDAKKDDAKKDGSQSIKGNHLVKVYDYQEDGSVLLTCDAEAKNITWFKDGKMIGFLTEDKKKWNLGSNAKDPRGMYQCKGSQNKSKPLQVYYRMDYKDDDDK
Test: Biacore SPR, vs template H183/L072
Hi there, I'd appreciate the recorded fold change of affinity for every entry that follows.
Numbers only, in fold.

A selection of reference data follows.
>  <binder>
H183/L072 VH I51M (antibody, name in Kabat numbering, V domains shown) VH: QVQLVESGGGLVQPGRSLRLSCAASGFTFSNAWMHWVRQAPGKGLEWVAQMKDKGNAYAAYYAPSVKGRFTISRDDSKNSIYLQMNSLKTEDTAVYYCHYVHYASASTVLPAFGVDAWGQGTTVTVSS VL: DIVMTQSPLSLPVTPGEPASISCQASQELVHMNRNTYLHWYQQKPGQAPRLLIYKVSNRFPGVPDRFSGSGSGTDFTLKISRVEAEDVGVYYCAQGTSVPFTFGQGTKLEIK

>  <fold change of affinity (fold)>
0.3

$$$$
>  <binder>
H183/L072 VH A60H (antibody, name in Kabat numbering, V domains shown) VH: QVQLVESGGGLVQPGRSLRLSCAASGFTFSNAWMHWVRQAPGKGLEWVAQIKDKGNAYAAYYHPSVKGRFTISRDDSKNSIYLQMNSLKTEDTAVYYCHYVHYASASTVLPAFGVDAWGQGTTVTVSS VL: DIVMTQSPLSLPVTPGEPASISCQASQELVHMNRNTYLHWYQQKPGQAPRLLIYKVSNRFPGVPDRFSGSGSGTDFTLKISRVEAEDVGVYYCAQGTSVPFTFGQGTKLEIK

>  <fold change of affinity (fold)>
1.1

$$$$
>  <binder>
H183/L072 VH Y55I (antibody, name in Kabat numbering, V domains shown) VH: QVQLVESGGGLVQPGRSLRLSCAASGFTFSNAWMHWVRQAPGKGLEWVAQIKDKGNAIAAYYAPSVKGRFTISRDDSKNSIYLQMNSLKTEDTAVYYCHYVHYASASTVLPAFGVDAWGQGTTVTVSS VL: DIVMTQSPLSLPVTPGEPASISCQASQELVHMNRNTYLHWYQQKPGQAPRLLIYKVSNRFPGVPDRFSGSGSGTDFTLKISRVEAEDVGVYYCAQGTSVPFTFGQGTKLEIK

>  <fold change of affinity (fold)>
0

$$$$

Would you mind listing fold change of affinity for each of the following binders?
1. H183/L072 VH A32N (antibody, name in Kabat numbering, V domains shown) VH: QVQLVESGGGLVQPGRSLRLSCAASGFTFSNNWMHWVRQAPGKGLEWVAQIKDKGNAYAAYYAPSVKGRFTISRDDSKNSIYLQMNSLKTEDTAVYYCHYVHYASASTVLPAFGVDAWGQGTTVTVSS VL: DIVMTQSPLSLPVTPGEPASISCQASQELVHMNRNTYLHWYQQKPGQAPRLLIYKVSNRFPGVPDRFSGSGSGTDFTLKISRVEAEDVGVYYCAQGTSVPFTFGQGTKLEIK
2. H183/L072 VH D52aF (antibody, name in Kabat numbering, V domains shown) VH: QVQLVESGGGLVQPGRSLRLSCAASGFTFSNAWMHWVRQAPGKGLEWVAQIKFKGNAYAAYYAPSVKGRFTISRDDSKNSIYLQMNSLKTEDTAVYYCHYVHYASASTVLPAFGVDAWGQGTTVTVSS VL: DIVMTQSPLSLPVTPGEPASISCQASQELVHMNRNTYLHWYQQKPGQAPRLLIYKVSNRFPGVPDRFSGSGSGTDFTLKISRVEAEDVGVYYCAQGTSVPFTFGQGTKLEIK

A)
[0.5, 0]
